Target: CYP3A4 (CYP3A) (Homo sapiens, UniProt P08684)
Sequence (P08684 2-503): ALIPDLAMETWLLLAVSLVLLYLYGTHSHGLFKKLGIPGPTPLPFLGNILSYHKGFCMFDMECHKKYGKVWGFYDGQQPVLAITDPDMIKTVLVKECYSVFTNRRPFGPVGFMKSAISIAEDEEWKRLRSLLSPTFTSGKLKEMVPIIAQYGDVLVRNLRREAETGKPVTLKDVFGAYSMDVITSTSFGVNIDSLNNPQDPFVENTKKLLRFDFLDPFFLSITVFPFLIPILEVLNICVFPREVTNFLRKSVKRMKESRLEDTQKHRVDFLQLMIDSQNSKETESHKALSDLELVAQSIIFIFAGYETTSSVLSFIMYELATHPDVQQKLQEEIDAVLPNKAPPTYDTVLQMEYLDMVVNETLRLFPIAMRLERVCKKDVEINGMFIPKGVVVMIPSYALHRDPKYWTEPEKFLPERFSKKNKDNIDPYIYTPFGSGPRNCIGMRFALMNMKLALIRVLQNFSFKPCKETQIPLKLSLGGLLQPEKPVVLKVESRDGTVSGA
Test: in vitro
Conditions: microsomes, pH 7.4
Observed Property: IC50 (nM)
Write the value in nM as a bare number.

Query block: Input `CC(=O)N[C@@H](Cc1cccc(-n2ccnc2)c1)[C@H](O)CN[C@H]1CC2(CCC2)Oc2ncc(CC(C)(C)C)cc21` , output reported IC50.
Result block: 160

Query block: Input `CC(C)(C)Cc1cnc2c(c1)[C@@H](NC[C@@H](O)[C@H](Cc1ccc3c(c1)OCO3)NC(=O)[C@H]1CCC(=O)C1)CC1(CCC1)O2` , output reported IC50.
Result block: 400

Query block: Input `CO[C@H](C)C(=O)N[C@@H](Cc1cccc(F)c1)[C@H](O)CN[C@H]1CC2(CCC2)Oc2c(Br)cc(CC(C)C)cc21` , output reported IC50.
Result block: 1300

Query block: Input `CO[C@H](C)C(=O)N[C@@H](Cc1cc(F)cc(F)c1)[C@H](O)CN[C@H]1CC2(CCC2)Oc2c(-c3nccs3)cc(CC(C)C)cc21` , output reported IC50.
Result block: 400

Query block: Input `CC(C)(C)Cc1cnc2c(c1)[C@@H](NC[C@@H](O)[C@H](Cc1cccc(C#N)c1)NC(=O)c1ncccc1F)CC1(CC(F)(F)C1)O2` , output reported IC50.
Result block: 600

Query block: Input `COCC(=O)N[C@@H](Cc1ccc(F)c(-c2ncc(C)s2)c1)[C@H](O)CN[C@H]1CC2(CCC2)Oc2ncc(CC(C)(C)C)cc21` , output reported IC50.
Result block: 400

Query block: Input `CC(C)Cc1cnc2c(c1)[C@@H](NC[C@@H](O)[C@H](Cc1ccc3c(c1)OCO3)NC(=O)[C@@H]1CCCO1)CC1(CCC1)O2` , output reported IC50.
Result block: 300

Query block: Input `CCCc1cnc2c(c1)[C@@H](NC[C@@H](O)[C@H](Cc1cc(F)cc(-c3nccs3)c1)NC(=O)[C@@H](C)OC)CC1(CCC1)O2` , output reported IC50.
Result block: 400

Query block: Input `CC(=O)CC(=O)N[C@@H](Cc1cccc(F)c1)[C@H](O)CN[C@H]1CC2(CCC2)Oc2ncc(CC(C)(C)C)cc21` , output reported IC50.
Result block: 1200

Query block: Input `CO[C@H](C)C(=O)N[C@@H](Cc1ccc(F)c(F)c1)[C@H](O)CN[C@H]1CC(C)(C)Oc2ncc(CC(C)(C)C)cc21` , output reported IC50.
Result block: 2000

Query block: Input `Cc1cccc(CN2CCO[C@H](C(=O)N[C@@H](Cc3ccc(F)cc3)[C@H](O)CN[C@H]3CC4(CCC4)Oc4ncc(CC(C)(C)C)cc43)C2)c1` , output reported IC50.
Result block: 200

Query block: Input `COCC(=O)N[C@@H](Cc1ccc(F)cc1)[C@H](O)CN[C@H]1CC2(CCC2)Oc2ncc(C(F)(F)C(C)(C)C)cc21` , output reported IC50.
Result block: 700

Query block: Input `CC(C)(C)Cc1cnc2c(c1)[C@@H](NC[C@@H](O)[C@H](Cc1cc(F)cc(-c3nccs3)c1)NC(=O)C1CCC1)CC1(CCC1)O2` , output reported IC50.
Result block: 200

Query block: Input `CC(C)(C)Cc1cnc2c(c1)[C@@H](NC[C@@H](O)[C@H](Cc1cc(F)cc(-c3nccs3)c1)NC(=O)[C@H]1CCCO1)CC1(CCC1)O2` , output reported IC50.
Result block: 200

Query block: Input `CO[C@H](C)C(=O)N[C@H](Cc1cc(F)cc(-c2nccs2)c1)[C@@H](O)CN[C@H]1CC2(CCC2)Oc2ncc(Br)cc21` , output reported IC50.
Result block: 300

Query block: Input `COCC(=O)N[C@@H](Cc1cc(F)cc(F)c1)[C@H](O)CN[C@H]1CC2(CCC2)Oc2c1cc(C1CC1)cc2-n1ccnc1` , output reported IC50.
Result block: 100

Query block: Input `COC(OC)C(=O)N[C@@H](Cc1cccc(-c2ncco2)c1)[C@H](O)CN[C@H]1CC2(CCC2)Oc2ncc(CC(C)(C)C)cc21` , output reported IC50.
Result block: 200

====

Field: IC50. Provide a value for each of the compounds that follow.
Target: CYP3A4 (CYP3A) (Homo sapiens, UniProt P08684)
Assay: in vitro
Conditions: microsomes, pH 7.4
Write the value in nM as a bare number.

Query block: System CYP3A4 (CYP3A) (Homo sapiens, UniProt P08684). Read-out IC50. Item `CC(=O)N[C@@H](Cc1ccc(F)cc1)[C@H](O)CN[C@H]1CC2(CCC2)Oc2c1cc(CC(C)(C)C)nc2NC1CCC1` . Report value.
Result block: 3300

Query block: System CYP3A4 (CYP3A) (Homo sapiens, UniProt P08684). Read-out IC50. Item `CC(=O)N[C@@H](Cc1cc(F)cc(-c2ccco2)c1)[C@H](O)CN[C@H]1CC2(CCC2)Oc2ccc(CC(C)(C)C)cc21` . Report value.
Result block: 2000

Query block: System CYP3A4 (CYP3A) (Homo sapiens, UniProt P08684). Read-out IC50. Item `COCC(=O)N[C@@H](Cc1cc(F)cc(F)c1)[C@H](O)CN[C@H]1CC2(CCC2)Oc2c(-c3nccs3)cc(CC(C)C)cc21` . Report value.
Result block: 800

Query block: System CYP3A4 (CYP3A) (Homo sapiens, UniProt P08684). Read-out IC50. Item `CC1(C)C[C@H]1c1cnc2c(c1)[C@@H](NC[C@@H](O)[C@H](Cc1cccc(-c3nccs3)c1)NC(=O)[C@H]1CCCO1)CC1(CCC1)O2` . Report value.
Result block: 100

Query block: System CYP3A4 (CYP3A) (Homo sapiens, UniProt P08684). Read-out IC50. Item `CC(=O)N[C@@H](Cc1cc(F)cc(-c2ccncc2)c1)[C@H](O)CN[C@H]1CC2(CCC2)Oc2ccc(CC(C)(C)C)cc21` . Report value.
Result block: 1100

Query block: System CYP3A4 (CYP3A) (Homo sapiens, UniProt P08684). Read-out IC50. Item `COCC(=O)N[C@@H](Cc1ccc2c(c1)OCO2)[C@H](O)CN[C@H]1CC2(CCC2)Oc2ncc(CC(F)(F)F)cc21` . Report value.
Result block: 300

Query block: System CYP3A4 (CYP3A) (Homo sapiens, UniProt P08684). Read-out IC50. Item `CC(C)(C)Cc1cnc2c(c1)[C@@H](NC[C@@H](O)[C@H](Cc1cc(F)cc(-c3nccs3)c1)NC(=O)C1(C)CC1)CC1(CCC1)O2` . Report value.
Result block: 200

Query block: System CYP3A4 (CYP3A) (Homo sapiens, UniProt P08684). Read-out IC50. Item `CC[C@@H](OC)C(=O)N[C@@H](Cc1ccc(F)cc1)[C@H](O)CN[C@H]1CC2(CCC2)Oc2ncc(CC(C)(C)C)cc21` . Report value.
Result block: 300

Query block: System CYP3A4 (CYP3A) (Homo sapiens, UniProt P08684). Read-out IC50. Item `COCC(=O)N[C@@H](Cc1ccc(F)cc1)[C@H](O)CN[C@@H]1CC2(CCC2)Oc2c1cc(CC(C)(C)C)nc2C#N` . Report value.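 Note: inhibition of CYP3A-mediated 1-hydroxymidazolam formation after 10 min incubation with NADPH, quantified by HPLC MS relative to metabolite produced without test compound.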
Result block: 400

====

Assay: Microsomal stability assay, rat liver microsomes;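 note: rat liver microsomes (0.25 mg/mL) with about 1 µM compound plus 1 mM NADPH, pH 7.4, 37 °C for 30 min, parent left measured by LC-MS/MS against 0 min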
Settings: rat liver microsomal data
Field: RLM. Provide a value for each of the compounds that follow.
Write the value in µL/min/mg as a bare number.

Query block: Input CO[C@H](C)C(=O)N[C@@H](Cc1ccc2c(c1)OCO2)[C@H](O)CN[C@H]1CC2(CCC2)Oc2ccc(C[C@@H](C)F)cc21 [compound 556] , output reported RLM.
Result block: 353

Query block: Input CO[C@H](C)C(=O)N[C@@H](Cc1cc(F)cc(F)c1)[C@H](O)CN[C@H]1CC2(CCC2)Oc2ncc(CC(C)(C)C#N)cc21 [compound 511] , output reported RLM.
Result block: 203

Query block: Input CO[C@H](C)C(=O)N[C@@H](Cc1cccc(F)c1)[C@H](O)CN[C@H]1CC2(CCC2)Oc2c(-c3cscn3)cc(CC(C)C)cc21 [compound 524] , output reported RLM.
Result block: 472

Query block: Input COCC(=O)N[C@@H](Cc1ccc(F)cc1)[C@H](O)CN[C@H]1CC2(CCC2)Oc2nc(C)c(CC(C)(C)C)cc21 [compound 468] , output reported RLM.
Result block: 662

Query block: Input COCC(=O)N[C@@H](Cc1cc(F)cc(F)c1)[C@H](O)CN[C@H]1CC2(CCC2)Oc2c(-c3ccccc3F)cc(CC(C)(C)C)cc21 [compound 487] , output reported RLM.
Result block: 387

Query block: Input CO[C@H](C)C(=O)N[C@@H](Cc1cc(F)cc(F)c1)[C@H](O)CN[C@H]1CC2(CCC2)Oc2c(-c3nccs3)cc(CC(C)C)cc21 [compound 459] , output reported RLM.
Result block: 399

Query block: Input CO[C@H](C)C(=O)N[C@@H](Cc1ccc2c(c1)OCO2)[C@H](O)CN[C@H]1CC2(CCC2)Oc2ccc(C[C@H](C)F)cc21 [compound 555] , output reported RLM.
Result block: 543

Query block: Input CCO[C@H](C)C(=O)N[C@@H](Cc1ccc2c(c1)OCO2)[C@H](O)CN[C@H]1CC2(CCC2)Oc2ncc(CC(C)(C)C)cc21 [compound 887] , output reported RLM.
Result block: 136

Query block: Input C#Cc1cc(C[C@H](NC(=O)COC)[C@H](O)CN[C@H]2CC3(CCC3)Oc3ncc(CC(C)C)cc32)ccc1F [compound 780] , output reported RLM.
Result block: 74

Query block: Input C[C@@H](O)C(=O)N[C@@H](Cc1ccc(F)cc1)[C@H](O)CN[C@H]1CC2(CCC2)Oc2ncc(CC(C)(C)C)cc21 [compound 442] , output reported RLM.
Result block: 150.333

Query block: Input CO[C@H](C)C(=O)N[C@@H](Cc1cccc(F)c1)[C@H](O)CN[C@H]1CC2(CCC2)Oc2c(Br)cc(CC(C)C)cc21 [compound 515] , output reported RLM.
Result block: 399

Query block: Input COC(OC)C(=O)N[C@@H](Cc1cccc(F)c1)[C@H](O)CN[C@H]1CC2(CCC2)Oc2ncc(CC(C)(F)F)cc21 [compound 797] , output reported RLM.
Result block: 199

Query block: Input CC(C)OCC(=O)N[C@@H](Cc1ccc(F)cc1)[C@H](O)CN[C@H]1CC2(CCC2)Oc2ncc(CC(C)(C)C)cc21 [compound 565] , output reported RLM.
Result block: 829
